- Organism: Rattus norvegicus
- assay remarks: DrugMatrix - Regimen: Daily Repeat
- Type: toxicity, organism-based, Sprague-Dawley
- Parameters: regimen Daily Repeat, gender Male, age 6-8 weeks
- cond: in vivo, po, 10 mg/kg, 72 h, tissue Plasma, route oral GAVAGE, dose level Low, time 3 day, […]
readout type: LACTATE DEHYDROGENASE

                                   compound  measurement
0  COCCOC(=O)C1=C(C)NC(C)=C(C(=O)OC(C)C)C1c1cccc([N+](=O)[O-])c1 (centres undefined)   135.67 u/L
1  CC(C)CC(N(C)C)C1(c2ccc(Cl)cc2)CCC1 (centres undefined)   253.33 u/L
2  CCOC(=O)C1=C(C)NC(C)=C(C(=O)OC)C1c1cccc([N+](=O)[O-])c1 (centres undefined)   130.67 u/L
3          COc1ccc2cc([C@H](C)C(=O)O)ccc2c1   313.33 u/L

====

A collection of compounds and their measured HEMATOCRIT
- Organism: Rattus norvegicus
- assay remarks: DrugMatrix - Regimen: Daily Repeat
- Type: toxicity, organism-based, Sprague-Dawley
- Parameters: regimen Daily Repeat, gender Male, age 6-8 weeks
- cond: in vivo, iv, 0 mg/kg, 72 h, tissue Blood, dose level Control, time 3 day, vehicle 100 % SALINE

compound	HEMATOCRIT [%]
CCc1c2c(nc3ccc(OC(=O)N4CCC(N5CCCCC5)CC4)cc13)-c1cc3c(c(=O)n1C2)COC(=O)[C@]3(O)CC [IRINOTECAN]	34.85
CC(=O)N[C@@H]1[C@H](Oc2c3cc4cc2Oc2ccc(cc2Cl)[C@@H](O[C@@H]2O[C@@H](CO)[C@@H](O)[C@H](O)[C@@H]2NC(C)=O)[C@@H]2NC(=O)[C@H](NC(=O)[C@@H]4NC(=O)[C@H]4NC(=O)[C@@H](Cc5ccc(c(Cl)c5)O3)NC(=O)[C@H](N)c3ccc(O)c(c3)Oc3cc(O)cc4c3)c3ccc(O)c(c3)-c3c(O[C@H]4O[C@H](CO)[C@@H](O)[C@@H](O)[C@@H]4O)cc(O)cc3[C@@H](C(=O)O)NC2=O)O[C@@H](CO)[C@@H](O)[C@@H]1O	35.83
COc1cccc2c1C(=O)c1c(O)c3c(c(O)c1C2=O)C[C@@](O)(C(=O)CO)C[C@@H]3O[C@H]1C[C@H](N)[C@H](O)[C@H](C)O1 [DOXORUBICIN]	33.22
COc1cccc2c1C(=O)c1c(O)c3c(c(O)c1C2=O)C[C@@](O)(C(=O)CO)C[C@@H]3O[C@H]1C[C@H](N)[C@@H](O)[C@H](C)O1 [EPIRUBICIN]	34.85
CCC1=C[C@@H]2CN(C1)Cc1c([nH]c3ccccc13)[C@@](C(=O)OC)(c1cc3c(cc1OC)N(C)[C@H]1[C@@](O)(C(=O)OC)[C@H](OC(C)=O)[C@]4(CC)C=CCN5CC[C@]31[C@@H]54)C2 [VINORELBINE]	34.63
CC[C@]1(O)C[C@@H]2CN(CCc3c([nH]c4ccccc34)[C@@](C(=O)OC)(c3cc4c(cc3OC)N(C)[C@H]3[C@@](O)(C(=O)OC)[C@H](OC(C)=O)[C@]5(CC)C=CCN6CC[C@]43[C@@H]65)C2)C1 [VINBLASTINE]	34.62
